Assay Summary: Pharmacokinetics of gemcitabine in mice, intravenous and oral
Assay type: in vivo
Test Parameters: both sexes, Kunming, mouse, plasma, iv, 50 mg/kg
Endpoint: Tmax (min)
Form entry: value (min) — number only.

Q: // Tmax lookup, key: Nc1ccn([C@@H]2O[C@H](CO)[C@@H](O)C2(F)F)c(=O)n1 [Gemcitabine, gemcitabine, reference compound]
A: 4.98

====

Assay Summary: Pharmacokinetics of SL-01 and SL-02 in mice, intragastric
Type: in vivo
Test Parameters: both sexes, Kunming, mouse, plasma, po, SL-01 100 mg/kg intragastric, analyte SL-01, read-out: Tmax, SL-01 Administration Group
Endpoint: Tmax (min)
Give just the number in min; leave the unit off.

Q: Fill blank: measured Tmax of the compound CCCCCCCCCCCCOC(=O)c1nccnc1C(=O)Nc1ccn([C@@H]2O[C@H](CO)[C@@H](O)C2(F)F)c(=O)n1 is ____.
A: 15

====

Test system: HT29: a human colon cancer cell line
Assay Summary: MTT analytical method, HT29 cells
Type: cell-based
Test Parameters: HT-29, 72 h
pIC50: −log10 of the molar value.
If the reported pIC50 equals or exceeds 5, assign true (1). If not, assign false (0).

Q: Decide: pIC50 of Nc1ccn([C@@H]2O[C@H](CO)[C@@H](O)C2(F)F)c(=O)n1 [Gemcitabine, gemcitabine, reference compound] >= 5?
A: true (1)

Q: // inclusive: pIC50 at least 5? input: CCCCCCCCCCCOC(=O)c1ccc(C(=O)Nc2ccn([C@@H]3O[C@H](CO)[C@@H](O)C3(F)F)c(=O)n2)cn1
A: true (1)

Q: Kindly determine if pIC50 recorded for CCCCCCCCCCCOC(=O)c1ccnc(C(=O)Nc2ccn([C@@H]3O[C@H](CO)[C@@H](O)C3(F)F)c(=O)n2)c1 is above or exactly 5.
A: true (1)

Q: Kindly determine if pIC50 recorded for CCCCCCCCCCCCOC(=O)c1ccc(C(=O)Nc2ccn([C@@H]3O[C@H](CO)[C@@H](O)C3(F)F)c(=O)n2)cn1 is above or exactly 5.
A: true (1)

Q: Hello, I need to know if CCCCCCCCCCCOC(=O)c1ccncc1C(=O)Nc1ccn([C@@H]2O[C@H](CO)[C@@H](O)C2(F)F)c(=O)n1 has measured pIC50 not below 5. Thanks!
A: false (0)

Q: Determine whether this molecule has pIC50 no lower than 5: CCCCCCCCCCCCOC(=O)c1cc(C(=O)Nc2ccn([C@@H]3O[C@H](CO)[C@@H](O)C3(F)F)c(=O)n2)[nH]n1
A: true (1)

Q: Would you say CCCCCCCCCCCOC(=O)c1cccc(C(=O)Nc2ccn([C@@H]3O[C@H](CO)[C@@H](O)C3(F)F)c(=O)n2)c1 shows pIC50 at minimum 5?
A: false (0)

Q: State whether the measured pIC50 reaches 5, counting equality as reaching it, for CCCCCCCCCCCCOC(=O)c1ccc(C(=O)Nc2ccn([C@@H]3O[C@H](CO)[C@@H](O)C3(F)F)c(=O)n2)s1
A: true (1)

Q: Item CCCCCCCCCCCOC(=O)c1cccc(C(=O)Nc2ccn([C@@H]3O[C@H](CO)[C@@H](O)C3(F)F)c(=O)n2)n1 with pIC50 of 5 or above?
A: false (0)

Q: Reported pIC50 at or above 5? CCCCCCCCCCCCOC(=O)c1ccc(C(=O)Nc2ccn([C@@H]3O[C@H](CO)[C@@H](O)C3(F)F)c(=O)n2)nc1
A: true (1)

Q: Test whether the molecule CCCCCCCCCCCOC(=O)c1nccnc1C(=O)Nc1ccn([C@@H]2O[C@H](CO)[C@@H](O)C2(F)F)c(=O)n1 records pIC50 of 5 or higher.
A: false (0)
